Test system: 958667-338-R-J2-PDC tumor spheroids viability
Test: Anticancer human tumor 958667-338-R-J2-PDC patient-derived colon adenocarcinoma cell line growth inhibition [PI3K]
Conditions: second compound 0.1 µM; first compound 3.16 µM; active compounds read low; spheroids with HUVEC and MSC
Parameter: viability, T/C. Scope: all listed entries.
Form entry: value (%) — number only.

// worked examples, viability, T/C included
1. C=CC(=O)N1CCN(c2nc(=O)n(-c3c(C)ccnc3C(C)C)c3nc(-c4c(O)cccc4F)c(F)cc23)C(C)C1 (stereo not given) + CC(Nc1ncnc2nc[nH]c12)c1cc2cccc(Cl)c2c(=O)n1-c1ccccc1	118
2. CC1(C)CCC(Nc2ncc(C(F)(F)F)c(-c3c[nH]c4c(P(C)(C)=O)c(C#N)ccc34)n2)CN1 (stereo not given) + CC(Nc1ccc2c(c1)OCCn1cc(N3C(=O)OCC3C(F)F)nc1-2)C(N)=O	66.8
3. CNC(=O)c1ccc(N2C(=S)N(c3ccc(C#N)c(C(F)(F)F)c3)C(=O)C2(C)C)cc1F + COc1c(OCCCN2CCOCC2)ccc2c3n(c(=NC(=O)c4cnc(N)nc4)nc12)CCN3	50.5
4. C=CC(=O)N1CCN(c2nc(=O)n(-c3c(C)ccnc3C(C)C)c3nc(-c4c(O)cccc4F)c(F)cc23)C(C)C1 (stereo not given) + COc1c(OCCCN2CCOCC2)ccc2c3n(c(=NC(=O)c4cnc(N)nc4)nc12)CCN3	72.4
5. CNC(=O)c1ccc(N2C(=S)N(c3ccc(C#N)c(C(F)(F)F)c3)C(=O)C2(C)C)cc1F + CC(Nc1ncnc2nc[nH]c12)c1cc2cccc(Cl)c2c(=O)n1-c1ccccc1	114
6. C#Cc1c(F)ccc2cc(O)cc(-c3ncc4c(N5CC6CCC(C5)N6)nc(OCC56CCCN5CC(F)C6)nc4c3F)c12 (stereo not given) + CC(Nc1ccc2c(c1)OCCn1cc(N3C(=O)OCC3C(F)F)nc1-2)C(N)=O	71.4

Quick one: viability, T/C for C[C@@H](NC(=O)c1ncnc(N)c1Cl)c1ncc(C(=O)Nc2cc(C(F)(F)F)c(Cl)cn2)s1 + COc1c(OCCCN2CCOCC2)ccc2c3n(c(=NC(=O)c4cnc(N)nc4)nc12)CCN3 ?
83.2

Please give the measured viability, T/C for this compound: C[C@@H](NC(=O)c1ncnc(N)c1Cl)c1ncc(C(=O)Nc2cc(C(F)(F)F)c(Cl)cn2)s1 + Cc1nc(NC(=O)N2CCCC2C(N)=O)sc1-c1ccnc(C(C)(C)C(F)(F)F)c1
107

Looking for the measured viability, T/C of C[C@@H](NC(=O)c1ncnc(N)c1Cl)c1ncc(C(=O)Nc2cc(C(F)(F)F)c(Cl)cn2)s1 + CC(Nc1ccc2c(c1)OCCn1cc(N3C(=O)OCC3C(F)F)nc1-2)C(N)=O , can you help?
90.1

Give the measured viability, T/C of CC1(C)CCC(CN2CCN(c3ccc(C(=O)NS(=O)(=O)c4ccc(NCC5CCOCC5)c([N+](=O)[O-])c4)c(Oc4cnc5[nH]ccc5c4)c3)CC2)=C(c2ccc(Cl)cc2)C1 + CC(Nc1ccc2c(c1)OCCn1cc(N3C(=O)OCC3C(F)F)nc1-2)C(N)=O .
96.6

###

Let's look at some compounds and their measured viability, T/C.
Tested on: 958667-338-R-J2-PDC tumor spheroids viability
Test: Anticancer human tumor 958667-338-R-J2-PDC cell line growth inhibition [PI3K];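 note: spheroids exposed to compounds for seven days before readout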
Conditions: second compound 10 µM; first compound 0.00316 µM; active compounds read low; spheroids with HUVEC and MSC

1) CCN1CCN(Cc2ccc(Nc3ncc(F)c(-c4cc(F)c5nc(C)n(C(C)C)c5c4)n3)nc2)CC1 + CC(Nc1ncnc2nc[nH]c12)c1cc2cccc(Cl)c2c(=O)n1-c1ccccc1	90%
2) CCN1CCN(Cc2ccc(Nc3ncc(F)c(-c4cc(F)c5nc(C)n(C(C)C)c5c4)n3)nc2)CC1 + Cc1nc(NC(=O)N2CCCC2C(N)=O)sc1-c1ccnc(C(C)(C)C(F)(F)F)c1	54.2%
3) CC(=O)c1c(C)c2cnc(Nc3ccc(N4CCNCC4)cn3)nc2n(C2CCCC2)c1=O + Cc1nc(NC(=O)N2CCCC2C(N)=O)sc1-c1ccnc(C(C)(C)C(F)(F)F)c1	52.2%
4) CC(C)n1nc(-c2ccc3oc(N)nc3c2)c2c(N)ncnc21 + Cc1nc(NC(=O)N2CCCC2C(N)=O)sc1-c1ccnc(C(C)(C)C(F)(F)F)c1	39.8%
5) CC(C)n1nc(-c2ccc3oc(N)nc3c2)c2c(N)ncnc21 + CC(Nc1ncnc2nc[nH]c12)c1cc2cccc(Cl)c2c(=O)n1-c1ccccc1	70.4%

Please look up its viability, T/C: Cn1ncnc1[C@H]1c2n[nH]c(=O)c3cc(F)cc(c23)N[C@@H]1c1ccc(F)cc1 + Cc1nc(NC(=O)N2CCCC2C(N)=O)sc1-c1ccnc(C(C)(C)C(F)(F)F)c1
73.3%

Need viability, T/C of CC(=O)c1c(C)c2cnc(Nc3ccc(N4CCNCC4)cn3)nc2n(C2CCCC2)c1=O + CC(Nc1ncnc2nc[nH]c12)c1cc2cccc(Cl)c2c(=O)n1-c1ccccc1 , thanks.
95%

Consider the compound Cn1ncnc1[C@H]1c2n[nH]c(=O)c3cc(F)cc(c23)N[C@@H]1c1ccc(F)cc1 + CC(Nc1ncnc2nc[nH]c12)c1cc2cccc(Cl)c2c(=O)n1-c1ccccc1 and give its measured viability, T/C.
109%
